target-or-test-system: acetylcholine receptor
experiment-notes: SPR, AchR immobilised on chip, peptide at 10 uM

{"binder": "KQQLK [5mer-559]", "Binding affinity (RU)": "81 RU"}
{"binder": "RGICK [5mer-582]", "Binding affinity (RU)": "82 RU"}
{"binder": "KQLYK [5mer-566]", "Binding affinity (RU)": "78 RU"}
{"binder": "RVQSK [5mer-273]", "Binding affinity (RU)": "82 RU"}
